assay: Plasma pharmacokinetics after IV or PO administration (Study 16009-12001); type: in vivo, male Balb/c mice; conditions: Balb/c, mouse, PO 10 mg/kg, male mice
Measured Metric: half-life (h)
Enter your answer as a number in h; do not include the unit.

Sample N=C(N)NCCCCC(=O)Nc1cc(C(F)(F)F)cc(NC(=O)c2cc(C(=O)Nc3cc(C(F)(F)F)cc(NC(=O)CCCCNC(=N)N)c3O[C@@H]3CCNC3)ncn2)c1O[C@@H]1CCNC1 [PMX-30063] ; half-life observed: 1.26

###

assay: in vivo; design: species or system male Balb/c mice; settings: male, Balb/c, mouse, po, 10 mg/kg
Measured Metric: half-life (min)
Enter your answer as a number in min; do not include the unit.

Sample N=C(N)NCCCCC(=O)Nc1cc(C(F)(F)F)cc(NC(=O)c2cc(C(=O)Nc3cc(C(F)(F)F)cc(NC(=O)CCCCNC(=N)N)c3O[C@@H]3CCNC3)ncn2)c1O[C@@H]1CCNC1 [PMX-30063] ; half-life observed: 47.4
